molecular target: mouse CD23 CRD (Mus musculus); construct: gene Fcer2; experiment: solid-phase competition with horseradish peroxidase reporter, immobilized biotin-tagged CRD; format: binding; details: pH 7.8, 2.5 mM CaCl2, 150 mM NaCl, 4 °C; competitive; KI approximates KD; may have been tested as methyl glycoside
Sequence (P20693 185-298 limits assumed): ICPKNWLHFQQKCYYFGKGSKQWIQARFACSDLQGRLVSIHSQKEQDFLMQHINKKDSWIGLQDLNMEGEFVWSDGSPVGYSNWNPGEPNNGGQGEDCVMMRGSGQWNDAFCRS
OBSERVED_PROPERTY: Ki (mM)
Write the value in mM as a bare number.

Give the measured Ki of C[C@@H]1OC(O)[C@@H](O)[C@H](O)[C@@H]1O (stereo partly shown) . 8.4
